molecular target: Torsin-1A (Homo sapiens) (UniProt O14656); experiment: torsin A binders from cell lysate, primary screen, small-molecule microarray, wild-type, 635/667 nm (AID 1149); settings: COS7 hTOR1A-WT lysate, 635 nm fluorescence, higher = more signal
Sequence (O14656 whole entry, looked up): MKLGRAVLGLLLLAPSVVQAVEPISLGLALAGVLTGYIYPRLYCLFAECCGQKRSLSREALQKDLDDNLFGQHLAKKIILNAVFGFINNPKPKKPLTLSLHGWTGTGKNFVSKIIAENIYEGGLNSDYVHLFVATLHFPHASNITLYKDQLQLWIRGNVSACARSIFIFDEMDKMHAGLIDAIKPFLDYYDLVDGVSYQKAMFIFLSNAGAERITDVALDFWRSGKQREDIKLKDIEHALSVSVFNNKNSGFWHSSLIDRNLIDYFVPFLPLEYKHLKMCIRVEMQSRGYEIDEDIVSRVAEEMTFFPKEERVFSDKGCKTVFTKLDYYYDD
Entries and their composite z-score values follow.

compound | experimental target | composite z-score
CN(C)CCCCCCNC(=O)[C@H]1C[C@H]2C(=O)N[C@@H](CCCCN)C(=O)N2[C@H]1c1cccc(OCCO)c1 | Torsin-1A (Homo sapiens) (UniProt O14656) | 3.76
COc1cc2c(cc1OC)CN(C(=O)[C@H]1[C@@H]3C(=O)O[C@@H](c4ccccc4)[C@@H](c4ccccc4)N3[C@@H](c3ccc(O)cc3)[C@]13C(=O)Nc1ccccc13)CC2 | Torsin-1A (Homo sapiens) (UniProt O14656) | 0.191
CCS[C@H]1[C@@H](C(=O)O)[C@H](c2ccc(C)cc2)N(S(=O)(=O)c2ccc(C)cc2)[C@@H]1CC | Torsin-1A (Homo sapiens) (UniProt O14656) | -0.0832
Cc1ccccc1C(O)C1C=CC2C(=O)N(c3ccccc3)C(=O)C2N1Nc1ccc(C(C)C)cc1 (centres undefined) | Torsin-1A (Homo sapiens) (UniProt O14656) | -0.0717

###

Quick reference: z-score of the listed items.
test: S. cerevisiae RM11-1a growth modifiers, primary screen, strain RM11-1a, OD600, basal, 24 h (AID 1177); settings: OD600, 24 h, higher = more signal, called active from +8 up or from −8 down;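 also: cultures grown under basal conditions with no added stressor; test concentration not given here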

molecule | z-score
CCCC[C@@H]1C[C@H]1[C@@H](NC(=O)C(C)(C)C)c1ccc(C(F)(F)F)cc1 | 1.17
COc1ccc(C(=O)Nc2ccc(CN3C(=O)[C@]4(O[C@H](CCO)[C@@H]([Si](C)(C)c5ccc(OC)cc5)[C@@H]4C)c4ccccc43)cc2)cc1 | 4.35
COc1ccc([Si](C)(C)[C@@H]2[C@@H](CCO)O[C@]3(C(=O)N(Cc4ccc(N(C=O)c5ccccc5)cc4)c4ccccc43)[C@H]2C)cc1 | 4.89
C[C@H]1NC(=O)[C@@]23C(=O)N[C@@H](Cc4ccccc4)C2[C@H](C)[C@@]2(C)O[C@H]2C3/C=C/C/C=C\CNC(=O)[C@@H]2CCCN2C1=O (stereo partly specified) | -0.0532
O=C(NCCN1CCOCC1)[C@@H]1c2ccccc2C(=O)N(C2CCCCC2)[C@H]1c1ccc(CO)cc1 | 0.0492
COCCOC(=O)N1C(=O)[C@@]2(c3cc(C#CCC(C(=O)OC)C(=O)OC)ccc31)[C@H](C(=O)N1CCN(c3ncccn3)CC1)[C@H]1C(=O)O[C@H](c3ccccc3)[C@H](c3ccccc3)N1[C@@H]2c1ccccc1OCCO | 2.75

###

experiment: CREB reporter modulators under forskolin, primary screen, cell-based, PC12, CRE-LacZ reporter, forskolin-stimulated (AID 1146); settings: luminescence, 4.5 h, higher = more signal, called active from +8 up or from −8 down;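 also: PC12 cells with 6xCRE LacZ reporter stimulated by forskolin 10 µM; beta-galactosidase reporter signal reflecting CREB driven transcription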
Each item that follows carries a reported z-score.

compound | z-score
CN(C)C(=O)[C@@]1(CCS(=O)(=O)c2ccccc2)COC(c2ccc(OCCCO)cc2)=N1 | -0.793
C=C(CCCC)/C(=C/C[C@H](OC(=O)c1ccncc1)c1ccccc1OCCO)c1cnc2ccccc2c1 | 0.494
CCCC[C@@H]1C[C@H]1[C@@H](NC(=O)c1ccco1)c1ccc(-c2ccccc2)cc1 | 0.576
O=C1C[C@@](C(=O)NCCN2CCOCC2)(c2ccc([N+](=O)[O-])cc2)[C@@H](c2ccc(CO)cc2)N1CC12CC3CC(CC(C3)C1)C2 | -0.0481
O=C1O[C@@H](c2ccccc2)[C@@H](c2ccccc2)N2[C@@H](c3ccccc3OCCO)[C@]3(C(=O)Nc4ccc(C#CC5=CCCCC5)cc43)[C@@H](C(=O)N3CCCCCCC3)[C@H]12 | 0.188
CCC[C@@H]1C[C@@]1(CCC)[C@@H](NS(=O)(=O)c1cccc2cccnc12)c1ccc(Cl)cc1 | 0.852
N#Cc1ccc(NN2C(C(O)C(c3ccccc3)c3ccccc3)C=CC3C(=O)N(c4ccccc4)C(=O)C32)cc1 (centres undefined) | -0.69
CC(C)C(=C=CC[C@H](O)c1ccc(OCCO)cc1)CCO | 0.36
CC(C)[Si](C#Cc1ccc(Oc2ccccc2)cc1)(O[Si](C#Cc1ccc(Oc2ccccc2)cc1)(C(C)C)C(C)C)C(C)C | -0.378
COc1cc2c(cc1O)C(c1cccs1)N(C)CC2 (centres undefined) | -0.0678
CC(C)C[C@@H]1NC(=O)[C@@H]2C[C@H](C(=O)O)[C@H](c3cccc(OCCO)c3)N2C1=O | 1.41
C=CCC(OC(C)=O)[C@@H]1[C@@H](N(Cc2ccc(-c3ccccc3)cc2)C(=O)Cc2ccc(OC)cc2)c2cc(OCCCO)ccc2N1C(=O)Cc1ccc2ccccc2c1 (some centres undefined) | 0.358
CC(C)OC(=O)C=C1C[C@@H](c2ccccn2)O[C@@H](c2ccccn2)O1 | -0.322
[N-]=[N+]=Nc1ccccc1[C@H]1OC(c2ccc(OCCCO)cc2)=N[C@@]1(CCS(=O)(=O)c1ccccc1)C(=O)NCC(O)CO (some centres undefined) | -0.249
C=CCN1C(=O)[C@]2(O[C@H](CCn3cc([C@H](O)c4ccccc4)nn3)[C@@H]([Si](C)(C)c3ccc(OC)cc3)[C@@H]2C)c2ccccc21 | -0.979
CO[C@H]1O[C@H](CO)[C@@H](OC(=O)Nc2ccc(Oc3ccccc3)cc2)[C@H](OC(=O)Nc2ccc3c(c2)OCO3)[C@H]1OC(=O)Nc1ccc2c(c1)OCO2 | -0.922
CCCC=C(CCC)[C@@H](NC(=O)c1cccs1)c1ccc(C(F)(F)F)cc1 | 0.796
O=C1C2C=CC(C(O)c3cccc4ccccc34)N(Nc3ccccc3F)C2C(=O)N1c1ccccc1 (centres undefined) | 0.276
COC(=O)[C@@]1(CCC(=O)OC(C)(C)C)N=C(c2ccc(OCCCO)cc2)O[C@H]1c1ccccc1N=[N+]=[N-] | -1.21
O=C1c2ccccc2[C@](Cc2ccccc2I)(C(=O)NCCN2CCOCC2)[C@H](c2ccc(CO)cc2)N1Cc1ccccc1Cl | -1.01
O=C1C2C=CC(C(O)CCc3ccccc3)N(Nc3ccccc3F)C2C(=O)N1c1ccccc1 (centres undefined) | 0.654
C=CCOC(=O)[C@H]1[C@@H]2C(=O)O[C@@H](c3ccccc3)[C@@H](c3ccccc3)N2[C@@H](c2ccc(OCCOC(=O)[C@H]3C[C@H]4C(=O)N[C@@H](CCCCNC(C)=O)C(=O)N4[C@H]3c3ccc(O)cc3)cc2)[C@]12C(=O)Nc1ccc(I)cc12 | 6.74
COc1ccc(C(=O)Nc2ccc(CN3C(=O)[C@]4(O[C@H](CCO)[C@@H]([Si](C)(C)c5ccc(OC)cc5)[C@@H]4C)c4ccccc43)cc2)cc1 | -1.89
COc1cc2c(cc1OC)CN(C(=O)[C@@H]1[C@H]3C(=O)O[C@H](c4ccccc4)[C@H](c4ccccc4)N3[C@H](c3ccc(O)cc3)[C@@]13C(=O)Nc1ccccc13)CC2 | -0.0307
COc1cc(NN2C(C(O)c3ccco3)C=CC3C(=O)N(c4ccccc4)C(=O)C32)cc(OC)c1OC (centres undefined) | -0.462
CCCC[C@@H]1C[C@H]1[C@@H](NC(=O)c1ccccc1)c1ccc(C(=O)OC)cc1 | 0.0003
COCCOC(=O)N1C(=O)[C@@]2(c3ccccc31)[C@H](c1ccc(O)cc1)N1[C@H](c3ccccc3)[C@H](c3ccccc3)OC(=O)[C@H]1[C@@H]2C(=O)Nc1nc2ccccc2s1 | 2.42
CCCC[C@@H]1C[C@H]1[C@@H](NC(=O)c1cccs1)c1ccc(-c2ccccc2)cc1 | 2.05
O=C1C[C@@](C(=O)NC2CC2)(c2ccc([N+](=O)[O-])cc2)[C@@H](c2ccc(CO)cc2I)N1C1CCCCC1 | 0.714
